# Test system: Plasmodium berghei
# measurement_description: Antimalarial activity against luciferase-expressing Plasmodium berghei ANKA 676m1cl1 sporozoites infected in human HepG2A16 cells measured after 45 hrs by luciferase-luciferin based reporter assay
# Format: functional, organism-based
# settings: ANKA 676m1cl1, HepG2A16, 45 h
Could you please mark 1 for values of IC50 below 50 nM and 0 for values at or above it?

[[record]]
compound_smiles = "CCCN(CCC)CCOc1ccc2[nH]c3cc(OC)cc(F)c3c(=O)c2c1"
class_assignment = 1


Request: Problem: For the compound CCCN(CCC)CCOc1ccc2c(=O)c3c(Cl)cc(Cl)cc3[nH]c2c1 , is IC50 under 50 nM?
Response: 1

Request: Same for CCN(CC)CCOc1ccc2[nH]c3cc(Cl)ccc3c(=O)c2c1
Response: 0

Request: // same read-out, input: CCN(CC)CCOc1ccc2c(=O)c3cc(Cl)ccc3[nH]c2c1
Response: 0

Request: // next record CCCCCCOc1ccc2c(=O)c3c(F)cc(F)cc3[nH]c2c1
Response: 0

Request: Repeat with O=c1c2ccc(OCCCl)cc2[nH]c2ccc(Cl)c(Cl)c12
Response: 0

---

# Test system: Plasmodium berghei
# measurement_description: Antimalarial activity against luciferase-expressing Plasmodium berghei ANKA 676m1cl1 sporozoites infected in human HepG2A16 cells measured after 45 hrs by luciferase-luciferin based reporter assay
# Format: functional, organism-based
# settings: ANKA 676m1cl1, HepG2A16, 45 h
quantity: IC50 (nM)
State just the number; it will be interpreted in nM.

Please review the entries below; each comes with its answer.
[[record]]
compound_smiles = "CCCN(CCC)CCOc1ccc2c(=O)c3c(F)cc(F)cc3[nH]c2c1"
quantity_unit = "nM"
value_observed = 1.4

[[record]]
compound_smiles = "CCCN(CCC)CCCOc1ccc2c(=O)c3c(F)cc(F)cc3[nH]c2c1"
quantity_unit = "nM"
value_observed = 3.4

[[record]]
compound_smiles = "CCCN(CCC)CCOc1ccc2c(=O)c3c(Cl)cc(OC)cc3[nH]c2c1"
quantity_unit = "nM"
value_observed = 2.9


Request: // lookup IC50 for O=c1c2ccc(OCCCCl)cc2[nH]c2cc(Cl)cc(Cl)c12
Response: 523

Request: # iterate: CCCN(CCC)CCOc1ccc2c(=O)c3cc(Cl)ccc3[nH]c2c1
Response: 12.5

Request: Param item: O=c1c2ccc(Cl)cc2[nH]c2cc(OCCN3CCCC3)ccc12
Response: 456

Request: Now this one: CCN(CC)CCOc1ccc2c(=O)c3ccccc3[nH]c2c1
Response: 503

Request: Next record, please: CCCN(CCC)CCOc1ccc2[nH]c3cc(F)cc(F)c3c(=O)c2c1
Response: 0.75

Request: Follow-up item: O=c1c2ccc(OCCN(CCC(F)(F)F)CCC(F)(F)F)cc2[nH]c2cc(F)cc(F)c12
Response: 0.09

Request: What do we get for CCN(CC)CCOc1ccc2c(=O)c3c(Cl)c(Cl)ccc3[nH]c2c1 ?
Response: 5.5

Request: Try this molecule next: O=c1c2ccc(OCCCCCl)cc2[nH]c2cc(F)cc(F)c12
Response: 17

Request: Next entry: CCN(CC)CCCOc1ccc2c(=O)c3ccc(Cl)cc3[nH]c2c1
Response: 436

Request: One more molecule: CCN(CC)CCOc1ccc2c(=O)c3ccc(F)cc3[nH]c2c1
Response: 119

Request: And the next one, CCCCN(CCCC)CCOc1ccc2c(=O)c3c(Cl)c(Cl)ccc3[nH]c2c1 ?
Response: 0.5

Request: Please do the same for O=c1c2ccc(OCCNC34CC5CC(CC(C5)C3)C4)cc2[nH]c2ccc(Cl)c(Cl)c12 as well.
Response: 86

Request: Check CCN(CC)CCCOc1ccc2c(=O)c3c(Cl)cc(Cl)cc3[nH]c2c1 too.
Response: 138

Request: Same read-out for CC(C)(C)NCCCCOc1ccc2c(=O)c3c(F)cc(F)cc3[nH]c2c1 ?
Response: 362

Request: Same thing, different molecule: CCN(CC)CCOc1ccc2c(=O)c3ccc(Br)cc3[nH]c2c1
Response: 100
